# target: T1, cynomolgus suPAR (cynomolgus, UniProt Q9GK78 23-303, limits assumed)
# T1 construct: Target antigen of the off-rate screen; also called cynomolgus uPAR; cynoPLAUR-His
# T1 sequence (Q9GK78 23-303 limits assumed): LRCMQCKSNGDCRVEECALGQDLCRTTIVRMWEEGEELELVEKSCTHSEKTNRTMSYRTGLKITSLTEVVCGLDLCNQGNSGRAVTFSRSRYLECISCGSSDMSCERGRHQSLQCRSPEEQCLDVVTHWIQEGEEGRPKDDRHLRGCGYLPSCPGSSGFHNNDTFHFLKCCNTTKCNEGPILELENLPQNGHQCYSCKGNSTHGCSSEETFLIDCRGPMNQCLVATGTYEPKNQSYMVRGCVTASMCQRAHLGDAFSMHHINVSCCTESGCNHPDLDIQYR
# run_description: BLI (Octet) off-rate screen of scFv clones
reported_endpoint: koff (s⁻¹)
API: value field is a number in s⁻¹; no unit string.

Challenge: Item under review: suPAR_DB03_E03 (scFv, V domains shown, screened as scFv) VH: QVQLVQSGAEVKKPGASVKVSCKASGYTVTNYYMHWVRQAPGQGLEWMGWIDHENGNTIYDQKFQGRVTMTRDTSTSTVYMELSSLRSEDTAVYYCARGYDVDWFVYWGQGTLVTVSS VL: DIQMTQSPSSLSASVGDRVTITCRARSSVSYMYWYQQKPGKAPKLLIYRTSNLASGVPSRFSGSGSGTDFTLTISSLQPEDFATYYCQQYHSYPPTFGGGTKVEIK . Reported koff?
Response given: 0.000132

Challenge: Item under review: suPAR_DB03_A05 (scFv, V domains shown, screened as scFv) VH: QVQLVQSGAEVKKPGASVKVSCKASGYTFSSYYMHWVRQAPGQGLEWMGWIDHENGNTIYAQKFQGRVTMTRDTSTSTVYMELSSLRSEDTAVYYCARGYDVDWFVYWGQGTLVTVSS VL: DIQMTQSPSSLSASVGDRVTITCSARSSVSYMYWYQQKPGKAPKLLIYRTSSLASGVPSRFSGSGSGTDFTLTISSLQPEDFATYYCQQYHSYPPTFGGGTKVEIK . Reported koff?
Response given: 0.000259

Challenge: Item under review: suPAR_DB03_B09 (scFv, V domains shown, screened as scFv) VH: QVQLVQSGAEVKKPGASVKVSCKASGYNIKSYYIHWVRQAPGQGLEWMGWIDPEGGSTIYDQKFQGRVTMTRDTSTSTVYMELSSLRSEDTAVYYCARGYDVDWFVYWGQGTLVTVSS VL: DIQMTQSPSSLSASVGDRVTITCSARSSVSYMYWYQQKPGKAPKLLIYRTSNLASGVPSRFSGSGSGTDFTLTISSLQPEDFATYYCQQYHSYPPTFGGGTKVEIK . Reported koff?
Response given: 0.000126
